Test target: ScFus1
Measurement description: SPOT peptide array binding signal intensity (averaged, normalized) (arbitrary units (background-subtracted, floor 0; scale differs between SH3 domains)); higher = stronger binding of the SH3 domain to the peptide
Experimental endpoint: SPOT peptide array binding signal intensity
Just the number, please, no unit after it.

INSERT INTO measurements (binder, readout_value) VALUES
  ('SKIRPTPRKPSRMAT', 21),
  ('QLLNPNRRAPRRPLS', 104),
  ('MARRRLPDRPPNGIG', 61),
  ('RTIRKLPLMSLSEYF', 328),
  ('KRKRFNLLLPKPYLT', 570),
  ('TKRKRPARLIFYDSK', 354),
  ('NNNKMRPHLPPLSSG', 424),
  ('NSVPIMPTLPPRPYI', 40.5),
  ('RSLRKRPTSPSISGS', 488),
  ('NLKKRPPTAPQRKIS', 80);

Would you kindly share the measured SPOT peptide array binding signal intensity for LKRITSPPLPPRADS ? 1

Requested field: SPOT peptide array binding signal intensity. Item: MKRSRPSRSIPYTTP 129
